system.under.test: T1, Sen1 HD T1623E (Saccharomyces cerevisiae, UniProt Q00416 1095-1905, T1623E)
T1 sequence: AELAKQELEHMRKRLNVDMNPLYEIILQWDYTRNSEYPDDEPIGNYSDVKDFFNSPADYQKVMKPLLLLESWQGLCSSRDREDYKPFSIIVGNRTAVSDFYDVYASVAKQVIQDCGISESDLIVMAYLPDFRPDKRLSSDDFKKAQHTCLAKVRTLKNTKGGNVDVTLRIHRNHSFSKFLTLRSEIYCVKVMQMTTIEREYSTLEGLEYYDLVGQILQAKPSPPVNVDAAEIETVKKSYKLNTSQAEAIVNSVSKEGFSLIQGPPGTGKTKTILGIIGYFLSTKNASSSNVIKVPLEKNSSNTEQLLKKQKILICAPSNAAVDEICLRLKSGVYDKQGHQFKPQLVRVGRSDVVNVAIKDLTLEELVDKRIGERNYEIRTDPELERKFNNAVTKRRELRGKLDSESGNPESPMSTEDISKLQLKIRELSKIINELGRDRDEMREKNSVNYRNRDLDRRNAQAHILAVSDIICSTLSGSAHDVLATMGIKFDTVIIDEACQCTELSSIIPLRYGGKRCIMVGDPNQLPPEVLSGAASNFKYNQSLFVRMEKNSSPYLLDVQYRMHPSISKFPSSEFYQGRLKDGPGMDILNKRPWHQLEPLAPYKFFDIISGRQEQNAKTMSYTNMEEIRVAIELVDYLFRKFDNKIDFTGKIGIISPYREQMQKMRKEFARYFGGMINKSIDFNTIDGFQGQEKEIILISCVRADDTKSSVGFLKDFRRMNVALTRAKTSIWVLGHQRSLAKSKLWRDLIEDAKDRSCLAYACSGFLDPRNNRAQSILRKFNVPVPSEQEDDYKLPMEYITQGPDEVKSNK
assay.summary: EMSA
endpoint.label: Kd (nM)
Enter your answer as a number in nM; do not include the unit.

q: Please look at this binder and report its Kd: UUCAUUUCAGACCAGCACCCACUCACUACAACUCACGACCAGGC (ssRNA) [DL3508 (called 40-mer RNA; printed sequence is 44 nt)]
a: 100
